species on record: Homo sapiens; assay: Ratio of IC50 for human COX1 to IC50 for human COX2 in human whole blood; type: tissue-based
Recorded Ratio IC50 for the following compounds

In the examples that follow, each entry is paired with its recorded Ratio IC50.
>>> experimental_value("Cc1c(NCc2ccccc2)nc(-c2ccc(S(C)(=O)=O)cc2)nc1C(F)(F)F")
"> 556"
>>> experimental_value("NS(=O)(=O)c1ccc(-c2nc(NCC3CCCCC3)cc(C(F)(F)F)n2)cc1")
"> 124"
>>> experimental_value("CCSc1cc(NCc2ccccc2)nc(-c2ccc(S(C)(=O)=O)cc2)n1")
414
>>> experimental_value("CC(C)c1ccc(CNc2cc(C(F)(F)F)nc(-c3ccc(S(C)(=O)=O)cc3)n2)cc1")
"> 1"
>>> experimental_value("Cn1cccc1CCNc1cc(C(F)(F)F)nc(-c2ccc(S(C)(=O)=O)cc2)n1")
"> 25"

# query: Ratio IC50 of entry "COCOc1ccc(CNc2cc(C(F)(F)F)nc(-c3ccc(S(C)(=O)=O)cc3)n2)cc1"
> 1

Please look up its Ratio IC50: "Cn1cccc1CNc1cc(C(F)(F)F)nc(-c2ccc(S(C)(=O)=O)cc2)n1"
> 3470

Quick check: Ratio IC50 of "CS(=O)(=O)c1ccc(-c2nc(NCc3ccc(OC(F)(F)F)cc3)cc(C(F)(F)F)n2)cc1" ?
> 1

State the recorded Ratio IC50 for this entry: "CS(=O)(=O)Oc1ccc(CNc2cc(C(F)(F)F)nc(-c3ccc(S(C)(=O)=O)cc3)n2)cc1"
> 1

* * *

target: Prostaglandin G/H synthase 2 (Homo sapiens)
pIC50 values by entry
Scale explanation: pIC50 corresponds to minus log10 of a concentration expressed in moles per litre.

Answered examples (4):
>>> experimental_value("CS(=O)(=O)c1ccc(-c2nccc(NCc3cccs3)n2)cc1")
8.04
>>> experimental_value("Cc1ccc(CNc2cc(Cl)nc(-c3ccc(S(C)(=O)=O)cc3)n2)cc1")
7.35
>>> experimental_value("CCS(=O)(=O)c1cc(NCc2cccs2)nc(-c2ccc(S(C)(=O)=O)cc2)n1")
6.84
>>> experimental_value("CCc1c(NCc2cccs2)nc(-c2ccc(S(C)(=O)=O)cc2)nc1C(F)(F)F")
6.92

pIC50 lookup needed for "Cc1c(NCc2ccc(F)cc2)nc(-c2ccc(S(C)(=O)=O)cc2)nc1C(F)(F)F" , thanks.
7.65

* * *

molecular target: Prostaglandin G/H synthase 2 (Homo sapiens)
pIC50: −log10 of the molar value.
Think of 7 as a floor: if pIC50 stands on it or above, it is met; beneath it, not met.

>>> classification("COc1ccc(CNc2cc(C(F)(F)F)nc(-c3ccc(S(C)(=O)=O)cc3)n2)cc1")
"not met"
>>> classification("NS(=O)(=O)c1ccc(-c2nc(NCc3ccsc3)cc(C(F)(F)F)n2)cc1")
"met"
>>> classification("Cc1ccc(CNc2cc(C(F)(F)F)nc(-c3ccc(S(C)(=O)=O)cc3)n2)s1")
"met"
>>> classification("CC(C)Nc1cc(NCc2ccccc2)nc(-c2ccc(S(C)(=O)=O)cc2)n1")
"not met"

Please indicate if the recorded pIC50 for "Cn1cccc1CNc1cc(C(F)(F)F)nc(-c2ccc(S(C)(=O)=O)cc2)n1" meets or exceeds 7.
met

hey, is pIC50 for this one >= 7? "CS(=O)(=O)c1ccc(-c2nc(NCc3ccc(OC(F)(F)F)cc3)cc(C(F)(F)F)n2)cc1"
not met

State whether the measured pIC50 reaches 7, counting equality as reaching it, for "CS(=O)(=O)c1ccc(-c2nc(NCc3cccnc3)cc(C(F)(F)F)n2)cc1"
not met

* * *

Lab note: IC50 readings collected with Prostaglandin G/H synthase 2 (Homo sapiens, UniProt P35354) for the following compounds.
Respond with the bare value in nM.

>>> experimental_value("CCSc1cc(NCc2cccs2)nc(-c2ccc(S(C)(=O)=O)cc2)n1")
1.2
>>> experimental_value("NS(=O)(=O)c1ccc(-c2nc(NCc3cccs3)cc(C(F)(F)F)n2)cc1")
158
>>> experimental_value("CS(=O)(=O)c1ccc(-c2nc(NC3CCCCC3)cc(C(F)(F)F)n2)cc1")
238
>>> experimental_value("CS(=O)(=O)c1ccc(-c2nc(NCc3cc4ccccc4s3)cc(C(F)(F)F)n2)cc1")
293

Look up IC50: "NS(=O)(=O)c1ccc(-c2nc(NCc3ccco3)cc(C(F)(F)F)n2)cc1"
2790

Consider the compound "CC(C)Nc1cc(NCc2cccs2)nc(-c2ccc(S(C)(=O)=O)cc2)n1" and give its measured IC50.
10.3

Look up IC50 for this compound: "Cc1ccsc1CNc1cc(C(F)(F)F)nc(-c2ccc(S(C)(=O)=O)cc2)n1"
528

* * *

species: Homo sapiens; experiment: Ratio of IC50 for human COX1 to IC50 for human COX2 in human whole blood; format: tissue-based
# Ratio IC50 annotations

>>> experimental_value("Cc1ccc(CNc2cc(C(F)(F)F)nc(-c3ccc(S(C)(=O)=O)cc3)n2)cc1")
"> 2060"

Field: next compound
Bench note: what Ratio IC50 did "CC(C)Nc1cc(NCc2cccs2)nc(-c2ccc(S(C)(=O)=O)cc2)n1" show?
> 9720

* * *

organism: Homo sapiens; test: Ratio of IC50 for human COX1 to IC50 for human COX2 in human whole blood; assay type: tissue-based
Quick reference for Ratio IC50 among some compounds

Below, 2 compounds whose answers are already recorded.
>>> experimental_value("CS(=O)(=O)c1ccc(-c2nc(NCc3ccc(C(F)(F)F)cc3)cc(C(F)(F)F)n2)cc1")
"> 52"
>>> experimental_value("NS(=O)(=O)c1ccc(-c2nc(NCc3ccccn3)cc(C(F)(F)F)n2)cc1")
"> 10"

Please give the measured Ratio IC50 for this compound: "NS(=O)(=O)c1ccc(-c2nc(NCc3csc4ccccc34)cc(C(F)(F)F)n2)cc1"
> 1

Can you share its Ratio IC50? I mean this compound: CS(=O)(=O)c1ccc(-c2nc(NCC3CC=CCC3)cc(C(F)(F)F)n2)cc1 (centres undefined)
> 304

Look up Ratio IC50: "CCN(Cc1ccccc1)c1cc(C(F)(F)F)nc(-c2ccc(S(C)(=O)=O)cc2)n1"
> 1

Which Ratio IC50 is reported for this compound? "CS(=O)(=O)c1ccc(-c2nc(SCc3cccs3)cc(C(F)(F)F)n2)cc1"
> 24400

Requested field: Ratio IC50. Item: "CS(=O)(=O)c1ccc(-c2nc(Nc3ccccc3)cc(C(F)(F)F)n2)cc1"
> 1

Any idea what its Ratio IC50 is? The compound is "CCS(=O)(=O)c1cc(NCc2ccccc2)nc(-c2ccc(S(C)(=O)=O)cc2)n1"
> 110

Record request: Ratio IC50 value, item "NS(=O)(=O)c1ccc(-c2nc(NCc3cccs3)cc(C(F)(F)F)n2)cc1"
> 634

* * *

Target: Prostaglandin G/H synthase 2 (Homo sapiens)
Sequence (P35354 whole entry): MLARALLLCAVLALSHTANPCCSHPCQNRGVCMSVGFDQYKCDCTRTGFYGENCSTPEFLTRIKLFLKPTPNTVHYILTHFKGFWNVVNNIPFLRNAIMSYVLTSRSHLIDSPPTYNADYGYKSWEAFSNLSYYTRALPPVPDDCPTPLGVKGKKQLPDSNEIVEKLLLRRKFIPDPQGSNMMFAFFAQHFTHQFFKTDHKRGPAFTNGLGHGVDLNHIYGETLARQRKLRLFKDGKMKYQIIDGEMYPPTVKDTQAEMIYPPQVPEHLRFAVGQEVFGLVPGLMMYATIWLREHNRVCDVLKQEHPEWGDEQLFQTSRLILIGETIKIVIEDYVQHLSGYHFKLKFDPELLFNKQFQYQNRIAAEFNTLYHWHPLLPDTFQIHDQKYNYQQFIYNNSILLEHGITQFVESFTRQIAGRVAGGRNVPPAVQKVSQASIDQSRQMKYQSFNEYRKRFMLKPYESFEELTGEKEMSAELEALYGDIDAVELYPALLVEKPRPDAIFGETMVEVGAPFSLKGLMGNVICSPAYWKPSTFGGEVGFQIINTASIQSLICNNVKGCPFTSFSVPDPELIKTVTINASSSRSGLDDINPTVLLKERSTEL
pIC50: −log10 of the molar value.
The label depends only on pIC50: rule met if it is at least 6, rule not met if it is smaller.

Past entries and their recorded results:
>>> classification("NS(=O)(=O)c1ccc(-c2nc(NCc3csc4ccccc34)cc(C(F)(F)F)n2)cc1")
"rule not met"
>>> classification("CS(=O)(=O)c1ccc(-c2nc(NCc3csc4ccccc34)cc(C(F)(F)F)n2)cc1")
"rule not met"
>>> classification("Cn1cccc1CCNc1cc(C(F)(F)F)nc(-c2ccc(S(C)(=O)=O)cc2)n1")
"rule not met"
>>> classification("NS(=O)(=O)c1ccc(-c2nc(NCc3cccnc3)cc(C(F)(F)F)n2)cc1")
"rule not met"
>>> classification("Cc1ccc(CNc2nc(-c3ccc(S(C)(=O)=O)cc3)nc(Cl)c2C)cc1")
"rule met"

Next:
Check the entry "CS(=O)(=O)c1ccc(-c2nc(SCc3ccccc3)cc(C(F)(F)F)n2)cc1" : does pIC50 equal or exceed 6?
rule met

The values you see were collected from ChEMBL document CHEMBL1143107.
